ASSAYED_SYSTEM: Cytochrome P450 2C19 (Homo sapiens)
ASSAY_NAME: Cytochrome P450 Family 2 Subfamily C Member 19 (CYP2C19) small molecule antagonists: luciferase reporter qHTS assay (AID 1671197); also: nearly all actives have a fitted effect of over 65% in size
DETAILS: P450-Glo CYP2C19 enzyme, luciferin luminescence, 1 h; series mostly up to 115 µM
Results filed as inconclusive are left out. Active and inactive are the calls of the source. Calls follow the shape of the dose curve; as a rule, active = well fitted inhibition curve with a large enough effect in the repeat runs; inconclusive = weak or mixed curves; inactive = no such curve, though single readings can be large or run the other way.
Outcomes you can answer with include only these: 1 (active), -1 (inactive)

Take a look at these entries with their results.
CCCOc1ccccc1-c1nc2n[nH]nc2c(=O)[nH]1 | -1
CCCCc1ccc2cccc(S(=O)(=O)O)c2c1 | -1

Now take the following compound into account.
Query string: Check the results log: what was the call for C1C2OC2C2C1C1CC2C2OC12 (configuration not stated) ?
Result string: 1
